This collection of values is drawn from ChEMBL document CHEMBL4359842.

# EXPERIMENTAL PROTOCOL: Ratio of drug level in APPswe/PS1dE9 double mutant-transgenic mouse brain to plasma at 30 mg/kg, ip administered as single dose measured after 2 hrs by LC-MS/MS analysis
# Assay type: ADME, organism-based
# TEST PARAMETERS: read-out: BPR
OBSERVABLE: Kp at 2 h

- O=C1N/C(=N/c2ccccc2Cl)S/C1=C1\C(=O)Nc2ccc(F)cc21: 0.135

----------
# EXPERIMENTAL PROTOCOL: Tmax in APPswe/PS1dE9 double mutant-transgenic mouse at 30 mg/kg, ip administered as single dose by LC-MS/MS analysis
# Assay type: ADME, organism-based
# TEST PARAMETERS: in vivo
OBSERVABLE: Tmax (min)

* O=C1N/C(=N/c2ccccc2Cl)S/C1=C1\C(=O)Nc2ccc(F)cc21 | 24
